- Test system: Neuro2A cells
- protocol text: In vitro neuroprotection: Neuro2A cells cultured with GGA derivative with or without GGTI-298, cells that extended neurites counted
- Format: cell-based, mouse
- test parameters: compound at 1 μM; cells that extended neurites counted; normalized by the activity of CNS-102 (GGA trans-isomer)
- Method: Neuro2A cells were cultured with a GGA derivative in the presence or absence of an inhibitor against a G-protein (GGTI-298). After differentiation was induced, cells that extended neurites were counted as an activity of the compound. The activities are shown in arbitrary units and were normalized by the activity of CNS-102 (GGA trans-isomer) in each parallel experiments.
Marks after values point to notes of the source that are not given here.
Measured Activity 1 μM of individual entries

| compound | system name | Activity 1 μM |
| --- | --- | --- |
| CC(C)=CCC/C(C)=C/CC/C(C)=C/CC/C(C)=C/CC/C(C)=N/OCc1ccccc1 | Neuro2A cells | 287 arbitrary units |
| CCOC(=O)C(CC=C1CCCCC1)C(C)=O (centres unmarked) | Neuro2A cells | 162* arbitrary units |
| CCOC(=O)C(C/C=C(\C)CC/C=C(\C)CCC=C(C)C)C(C)=O (centres unmarked) | Neuro2A cells | 259* arbitrary units |
| CCOC(=O)C=C1CCCCC1 | Neuro2A cells | 240* arbitrary units |
| CCOC(=O)/C=C(\C)CCC=C1CCCCC1 | Neuro2A cells | 161* arbitrary units |

Values were extracted from patent US20130085283A1.
